target: H-2 Db molecule (Mus musculus); assay: Peptide binding to H-2 Db on TAP-deficient RMA-S cells (flow cytometry); type: cell-based, murine; settings: RMA-S cells loaded with sub-optimal 1 μM peptide, mean fluorescence intensity
Sequence (P01899 whole entry, looked up): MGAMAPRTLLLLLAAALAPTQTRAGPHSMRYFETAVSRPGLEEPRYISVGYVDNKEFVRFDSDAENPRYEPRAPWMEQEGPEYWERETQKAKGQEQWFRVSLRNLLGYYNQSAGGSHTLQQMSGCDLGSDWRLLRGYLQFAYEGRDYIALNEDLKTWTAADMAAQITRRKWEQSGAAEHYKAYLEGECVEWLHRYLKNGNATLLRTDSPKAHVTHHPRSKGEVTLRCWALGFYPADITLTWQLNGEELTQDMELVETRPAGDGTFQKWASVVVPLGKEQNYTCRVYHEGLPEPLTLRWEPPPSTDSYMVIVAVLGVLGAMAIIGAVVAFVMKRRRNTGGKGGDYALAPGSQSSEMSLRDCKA
Recorded Endpoint: binding to the H2-Db molecule relative to wt

In [3]: df
Out[3]:
                              residue_codes       readout_value
0  SVCDFFVWL [C3-Trp2, heteroclitic Trp2 peptide, Y3 to C substitution]  equivalent binding
1  SVYAFFVWL [A4-Trp2, heteroclitic Trp2 peptide, D4 to A substitution]  equivalent binding
